Entries and their GI50 values follow.
tested on: HS 578T breast; assay: NCI tumour cell line growth inhibition, 48 h
QUANTITY_NAME: GI50

>>> df
                            compound_string  endpoint_result
0  O=C1/C(=C/c2ccccc2[N+](=O)[O-])COc2ccc(O)c(O)c21          2.05 µM
1  COC(=O)[C@]12CC[C@@H](C)[C@H](C)[C@@H]1C1=CC[C@@H]3[C@@]4(C)CC(=O)[C@H](O)[C@@](C)(CO)[C@@H]4C(=O)C[C@@]3(C)[C@]1(C)CC2          7.98 µM
2  Cc1cc(C#Cc2ccccc2)ccc1-n1c(/C=C/c2cc(O)ccc2O)nc2ccccc2c1=O          1.54 µM
3  CCN(CCO)CCCOc1ccc2c(Nc3cc(CC(=O)Nc4cccc(F)c4)[nH]n3)ncnc2c1          8.15 µM

###

tested on: DLD-1 colon; test: NCI tumour cell line growth inhibition, 48 h
Entries and their TGI values follow.
QUANTITY_NAME: TGI

In [3]: df
Out[3]:
                                    molecule  endpoint_result
 0  CCc1ccc([O-])c(C=NCCCN(C)CCCN=Cc2cc(C)ccc2[O-])c1.[Co+3].[N-]=[N+]=[N-]      > 150 µg/mL
 1  CCOC(=O)CC(NCc1ccc(N=Cc2nc3ccc(C(F)(F)F)cc3nc2-c2ccccc2)cc1)C(=O)OCC (stereo unspecified)         > 100 µM
 2            N=C(N)SCc1cccc([N+](=O)[O-])c1          97.6 µM
 3             Cc1ccc2nc3c(C)cc(=O)cc-3sc2c1         > 100 µM
 4  Cn1cnc([N+](=O)[O-])c1Sc1nc2ccc([N+](=O)[O-])cc2[nH]1          32.6 µM
 5  CS(=O)(=O)OCCN(CCOS(C)(=O)=O)c1ccc(/C=N/Nc2ncnc3nc[nH]c23)cc1          74.9 µM
 6  COC(=O)C1=C(\O)C[C@@]2(C)CC[C@@H](C(=O)OC)C2C/C=C\1C(=O)OC (stereo partly specified)         > 100 µM
 7  O=C1OC2(OC2c2ccc(Cl)cc2)c2ccccc21 (stereo unspecified)         > 100 µM
 8    CNC(C)Cc1ccccc1OC (stereo unspecified)         > 100 µM
 9      ClCCCCOC1CCCCO1 (stereo unspecified)         > 100 µM
10  COC(=O)NC(=O)c1cn(C2CCCCC2)c(=O)[nH]c1=O         > 100 µM

###

test system: SR leukemia; assay: NCI tumour cell line growth inhibition, 48 h
Entries and their TGI values follow.
QUANTITY_NAME: TGI (µM)

>>> print(df.to_string())
                                   compound  quantity_name  value_qualifier  endpoint_result
0  Cc1ccc(N=NC(C2=NC(=O)CS2)c2nc3ccccc3[nH]2)cc1 (centres undefined)            TGI                >              100
1              Oc1ccc(-c2nc3cc(F)ccc3s2)cc1            TGI                =               16
2  C#CC(O)/C=C/C(O)CCCC(O)CC#CC(O)C#CC(O)CCCC(O)/C=C/CCCCCC(=O)CCCCCCCCCCCCCC(O)C(O)C#CC(=O)O (centres undefined)            TGI                =             26.1
3              O=C(NNC(=O)c1ccccc1O)c1ccco1            TGI                >              100
4  CNCCN(C)Cc1cn[nH]c1-c1ccc(OC2CC(OCCC3CCOCC3)C2)cc1 (centres undefined)            TGI                >              100
5  COc1ccc2nc3cc(Cl)ccc3c(Nc3cc(C(C)C)c(O)cc3C)c2c1            TGI                =               12
6  Cc1cccc(C)c1N1C(=O)C2c3[nH]c4ccccc4c3C3CCC(C(C)(C)C)CC3C2C1=O (centres undefined)            TGI                >              100
7  NCCNCCNc1ccc(NCCNCCN)c2c1C(=O)c1c(O)ccc(O)c1C2=O            TGI                =             23.8
8  COc1ccc(/C=C2\CCC(Cc3ccccc3)(CN(C)C)C2=O)cc1 (centres undefined)            TGI                =               54

###

tested on: KM12 colon; assay: NCI tumour cell line growth inhibition, 48 h
*1 amine or outer side, *2 acyl side, *3 side chain or, on linkers, in order; H or OH if unused. Where a SMILES comes first, the peptide text is derived from it. [ ]: non-standard residue; d: D form. The star is where a group is joined. γGlu = O=C(O)[CH](CCC(=O)[*:2])N[*:1]; Hiv = CC(C)[C@H](O)C(=O)O; NHOH = ON*

COMPOUND	TGI
CC(=O)NC(CCCNC(=O)OCc1ccccc1)C(=O)O (stereo unspecified)	> 100 µM
N#Cc1c(N)c(C#N)c2c(c1-c1ccc(Cl)cc1)COc1ccc(F)cc1-2	> 50 µM
C#Cc1ccc(-n2c(/C=C/c3ccc4ccccc4c3)nc3ncccc3c2=O)cc1	> 100 µM
Cc1cc2cc3ccccc3cc2c(=O)[nH]1	> 10 µM
COc1ccc2c(c1)CCc1c-2n(CCN2CCOCC2)c2ccc(OC)cc12	> 100 µM
O=C(O)COc1ccc(C(=O)/C(SS/C(C(=O)c2ccc(OCC(=O)O)c(Cl)c2Cl)=C2\C=C(c3ccccc3Cl)SS2)=C2/C=C(c3ccccc3Cl)SS2)c(Cl)c1Cl	> 71.4 µM
Cc1cc(C#Cc2ccccc2)ccc1-n1c(/C=C/c2cc(O)ccc2O)nc2ccccc2c1=O	3.07 µM
Cn1ccoc1=Nc1ccc(Cl)c(Cl)c1	> 10 µM
NCC1(N2CCOCC2)C2CCCC21CNc1ccccc1 (stereo unspecified)	> 100 µM
N#Cc1cn(-c2c3ccccc3nc3ccccc23)c(=O)[nH]c1=O	79.5 µM
CC(C)[C@@H]1OC(=O)[C@@H](C)NC(=O)[C@@H]2CCCN2C1=O (cyclo([Hiv]-Pro-[dA]))	> 100 µM
CCOC(=O)c1cc(-c2ccccc2)[nH]c1N/N=C/c1c(Cl)cccc1Cl	24.3 µM
CNCCNc1nc2ccccc2c2c(=O)c3cccc(C)c3sc12	2.88 µM
CNCCN(C)Cc1cn[nH]c1-c1ccc(OC2CC(OCCC3CCOCC3)C2)cc1 (stereo unspecified)	> 100 µM
O=C1/C(=C/c2ccccc2[N+](=O)[O-])COc2ccc(O)c(O)c21	3.72 µM
Cc1nc2ccc(N)cc2[nH]c1=O	> 100 µM
O=C(Nc1ccccc1)Nc1ccc(Cl)c(Cl)c1	20.5 µM
NNc1ncc2c(n1)-c1ccccc1OC2	> 100 µM
c1ccc2c(c1)N=C(c1ccc3ccccc3c1)CC(c1cccc3ccccc13)S2 (stereo unspecified)	> 100 µM
COCOc1c(C(OCOC)c2cnc(Sc3ccccc3)n2C)ccc(OC)c1OC (stereo unspecified)	> 100 µM
CC1(O)COCCCCOc2c(CN)cccc2NC(=O)c2nc(cnc2N)-c2ccc(cc2)S(=O)(=O)C(C)(C)C1 (stereo unspecified)	2.93 µM
CCOC(=O)C1=C(c2ccccc2)N(C(C)=O)Cc2ccccc21	30.3 µM
COC(=O)[C@@H]1COC(C(C)(C)C)N1C(=O)C(c1ccccc1)c1ccccc1 (stereo partly specified)	> 100 µM
CCOC(=O)CNC(=O)C(CCC(=O)NO)NC(=O)CCC(N)C(=O)O (stereo unspecified) (γGlu-Glu(NHOH)-Gly-OEt; configuration not given here)	> 100 µM
C=C(C)CC(C)(c1cc2ccccc2n1C)N1CCOCC1 (stereo unspecified)	> 100 µM
CN(C)c1ccc(/C=c2/c3ccccc3n3c2cc(NC(=O)NCCC[N+](C)(C)C)[n+]3C)cc1	> 100 µM
CCOC(=O)CC(NCc1ccc(N=Cc2nc3ccc(C(F)(F)F)cc3nc2-c2ccccc2)cc1)C(=O)OCC (stereo unspecified)	> 100 µM
Nc1c(Br)cc(-c2nc3ccccc3s2)cc1Br	> 100 µM
COc1cc([N+](=O)[O-])ccc1NC(=O)c1cccc([N+](=O)[O-])c1O	> 100 µM
Oc1cccc(-c2nc(-c3ccccc3)[nH]c2-c2ccncc2)c1	> 25 µM
O=c1[nH]c(SCc2ccccc2[N+](=O)[O-])nc2nc[nH]c12	> 100 µM
COC(=O)N/N=C(\c1ccccc1)c1ccc(OC)cc1	> 100 µM
Cc1cc2c(cc1Cl)N1C(=O)NS(=O)(=O)N=C1NS2(=O)=O	> 100 µM
O=c1oc2c/c(=C\c3ccccn3)c(=O)c3cccc1c3-2	> 100 µM
COC(=O)C1(O)c2ccccc2N=C2C1CCN2C (stereo unspecified)	> 100 µM
Cc1c/c(=N/NC(=O)c2ccncc2)n2nc(N)sc2n1	> 100 µM
c1c2c(cc3c1OCO3)-c1cc3ccc4c(c3c[n+]1CC2)OCO4	> 5.45 µM
COC(=O)N/N=C(/c1nc2ccc([N+](=O)[O-])cc2[nH]c1=O)C(O)c1ccc(OC)c(OC)c1 (stereo unspecified)	> 100 µM
CSc1nc(Br)nc2ncn(C3CC(Oc4ccc(C)cc4)C(COc4ccc(C)cc4)O3)c12 (stereo unspecified)	> 100 µM
COc1ccc2c(c1)/C(=C\c1c(Cl)n(-c3ccccc3)c3ccccc13)C(=O)N2	14.7 µM
Cc1c(O)c(Br)c(C)c(O)c1Br (tested in a mixture with another compound)	41.2 µM
